# experimental-protocol: gradient 5% acetonitrile 3 min, to 50% in 2 min, to 85% in 15 min, held 3 min, 100 µL/min
# conditions-used: column: Zorbax Extend-C18 2.1 x 50 mm; eluents: water / acetonitrile, 0.1% formic acid
readout-kind: RP-LC retention time (s)

[[record]]
query_smiles = "Cc1ccc(-c2nc3ncccn3c2NCc2ccc(F)cc2)cc1"
measurement_unit = "s"
number = 755

[[record]]
query_smiles = "COc1ccccc1-c1nc(-c2cccc(-c3ccnn3C)c2)no1"
measurement_unit = "s"
number = 1020

[[record]]
query_smiles = "O=C(CSc1nnc(-c2ccncc2)o1)Nc1cccc([N+](=O)[O-])c1"
measurement_unit = "s"
number = 669

[[record]]
query_smiles = "CCn1ccc(C(=O)N2CCN(c3cc(-c4ccccc4)[nH]n3)CC2)n1"
measurement_unit = "s"
number = 689

[[record]]
query_smiles = "Cc1nn(CC(=O)NCCc2ccco2)c(=O)c2c(-n3cccc3)n(-c3ccc(Cl)cc3)nc12"
measurement_unit = "s"
number = 973

[[record]]
query_smiles = "COc1ccc(Br)cc1CNC(=O)C1CCN(c2ccc3nnc(C)n3n2)CC1"
measurement_unit = "s"
number = 797


* * *

# experimental-protocol: gradient 5% acetonitrile 3 min, to 50% in 2 min, to 85% in 15 min, held 3 min, 100 µL/min
# conditions-used: column: Zorbax Extend-C18 2.1 x 50 mm; eluents: water / acetonitrile, 0.1% formic acid
readout-kind: RP-LC retention time (s)

Below: 10 molecules and their reported RP-LC retention time.
[[record]]
molecule = "O=C(CCCOc1ccc(Cl)cc1Cl)Nc1nc(-c2ccccc2)cs1"
number = 1210

[[record]]
molecule = "CC1CCCN(CC2CCN(S(=O)(=O)c3ccc4c(c3)CCC4)CC2)C1 (centres undefined)"
number = 719

[[record]]
molecule = "CC(C)OCCCNC(=O)c1ccc2cnn(Cc3ccc(F)cc3)c2c1"
number = 656

[[record]]
molecule = "Cc1cc(C)cc(NC(=O)c2cc3sccc3n2C)c1"
number = 1090

[[record]]
molecule = "CC(C)C(=O)NCc1csc(C2CCN(C(=O)C3(c4ccccc4)CC3)CC2)n1"
number = 740

[[record]]
molecule = "COc1ccc(-c2ccc(N3CCN(C(=O)Cc4cn(C)c5ccccc45)CC3)nn2)cc1"
number = 656

[[record]]
molecule = "Cc1ccccc1Oc1nccn2c(=O)n(CC(=O)Nc3ccccc3F)nc12"
number = 853

[[record]]
molecule = "O=C(CN1CCC(c2nc(-c3ccccc3)no2)CC1)Nc1ccccc1Br"
number = 795

[[record]]
molecule = "COc1ccc(CCNC(=O)CN2C(=O)NC3(CCCCC3)C2=O)cc1OC"
number = 691

[[record]]
molecule = "CN(C)S(=O)(=O)c1cccc(-c2nnc(-c3ccc(Cl)cc3)o2)c1"
number = 1000


(a) Cc1nc2cc(-c3noc(-c4ccc(F)cc4)n3)ccc2n(C(C)C)c1=O
(b) CCc1nc(OCC(=O)NCc2ccc(C)cc2)c2ccccc2n1
Q: Which record would sort first by descending RP-LC retention time, a or b ? Identify your pick by its label.
Ans: a
(a: 1200 s, b: 798 s)

* * *

# experimental-protocol: gradient 5% acetonitrile 3 min, to 50% in 2 min, to 85% in 15 min, held 3 min, 100 µL/min
# conditions-used: column: Zorbax Extend-C18 2.1 x 50 mm; eluents: water / acetonitrile, 0.1% formic acid
readout-kind: RP-LC retention time (s)

Below: 5 compounds and their reported RP-LC retention time.
[[record]]
compound = "O=C(NCc1ccc(Br)cc1)c1ccc2ncnc(N3CCCC3)c2c1"
readout_kind = "RP-LC retention time"
number = 679

[[record]]
compound = "C/C=C/C(=O)N1C(=O)OC[C@@H]1Cc1ccccc1"
readout_kind = "RP-LC retention time"
number = 891

[[record]]
compound = "O=C(Cn1ncc2c(N3CCN(c4ccccn4)CC3)ncnc21)Nc1ccccc1C(F)(F)F"
readout_kind = "RP-LC retention time"
number = 610

[[record]]
compound = "Cc1ccc(C(=O)NCCN2CCCC2)cc1NC(=O)C1=CSCCO1"
readout_kind = "RP-LC retention time"
number = 592

[[record]]
compound = "CCOc1ccc(OCC)c(NC(=O)CN2C(=O)C(C)(C)c3ccccc32)c1"
readout_kind = "RP-LC retention time"
number = 1090


(A) CN(C)C(=O)C1CCN(S(=O)(=O)Cc2ccc(F)cc2)CC1
(B) CCOC(=O)c1ccc(NC(=O)c2cnn(-c3ccc(Br)cc3)c2)cc1
Q: Which record would sort first by descending RP-LC retention time, A or B ? Identify your pick by its label.
Ans: B

* * *

# experimental-protocol: gradient 5% acetonitrile 3 min, to 50% in 2 min, to 85% in 15 min, held 3 min, 100 µL/min
# conditions-used: column: Zorbax Extend-C18 2.1 x 50 mm; eluents: water / acetonitrile, 0.1% formic acid
readout-kind: RP-LC retention time (s)

Below: 2 compounds and their reported RP-LC retention time.
[[record]]
compound = "Cc1ccc(CS(=O)(=O)N2CCC(n3c(-c4ccco4)nc4cccnc43)C2)cc1C (centres undefined)"
readout_kind = "RP-LC retention time"
number = 995

[[record]]
compound = "Cc1nc(-c2ccc3c(c2)CCN3C(=O)c2cccs2)cs1"
readout_kind = "RP-LC retention time"
number = 953


(a) C[C@H]1CN(C(=O)Cc2c(F)cccc2Cl)C[C@@H]1c1nc(-c2ccccc2)no1
(b) Cc1ccc(-c2ccc(=O)n(CCCC(=O)Nc3ccc(-c4ccc(=O)[nH]n4)cc3)n2)cc1
Q: # min-compare on RP-LC retention time between a and b Identify your pick by its label.
Ans: b

* * *

# experimental-protocol: gradient 5% acetonitrile 3 min, to 50% in 2 min, to 85% in 15 min, held 3 min, 100 µL/min
# conditions-used: column: Zorbax Extend-C18 2.1 x 50 mm; eluents: water / acetonitrile, 0.1% formic acid
readout-kind: RP-LC retention time (s)

[[record]]
query_smiles = "COc1ccc(-c2nc(-c3nnn(Cc4ccccc4)c3C)no2)c(OC)c1"
measurement_unit = "s"
number = 990

[[record]]
query_smiles = "Cc1ccc(NC(=O)N2CCc3nc(-c4ccc(F)cc4)ncc3C2)cc1C"
measurement_unit = "s"
number = 1020

[[record]]
query_smiles = "CC(C)c1ccc(S(=O)(=O)N2CCC(C(=O)NCc3csc(-c4cccs4)n3)CC2)cc1"
measurement_unit = "s"
number = 1030


* * *

# experimental-protocol: gradient 5% acetonitrile 3 min, to 50% in 2 min, to 85% in 15 min, held 3 min, 100 µL/min
# conditions-used: column: Zorbax Extend-C18 2.1 x 50 mm; eluents: water / acetonitrile, 0.1% formic acid
readout-kind: RP-LC retention time (s)

Below: 4 compounds and their reported RP-LC retention time.
[[record]]
compound = "CCNc1cc(N2CCCC(CCC(=O)N3CCCN(c4ncccn4)CC3)C2)ncn1 (centres undefined)"
number = 608

[[record]]
compound = "CC1CCN(C(=O)c2cc3c(s2)CCC(C(=O)NCc2cccnc2)C3)CC1 (centres undefined)"
number = 639

[[record]]
compound = "CC(C)NC(=O)N1CCCC1c1noc(COc2ccc(F)cc2)n1 (centres undefined)"
number = 799

[[record]]
compound = "Cc1nn(C)cc1CN1CCCCC1CCn1cc(-c2ccccc2)nn1 (centres undefined)"
number = 564


(P) CC(=O)Nc1ccc2c(c1)nc(CN1CCOCC1)n2C(C)C
(Q) O=C(Nc1ccc2ccccc2c1)N1CCN(c2ncc(C(F)(F)F)cc2Cl)CC1
Q: Which record would sort first by descending RP-LC retention time, P or Q ? Identify your pick by its label.
Ans: Q
(Q: 1110 s, P: 579 s)

(a) COC(=O)c1c(NCCO)c2cccc(Cl)c2[nH]c1=O
(b) CCOC(=O)C1CCN(S(=O)(=O)c2cccc(-c3nc(-c4ccccc4)no3)c2)CC1
Q: # min-compare on RP-LC retention time between a and b Identify your pick by its label.
Ans: a
(a: 610 s, b: 1210 s)

* * *

# experimental-protocol: gradient 5% acetonitrile 3 min, to 50% in 2 min, to 85% in 15 min, held 3 min, 100 µL/min
# conditions-used: column: Zorbax Extend-C18 2.1 x 50 mm; eluents: water / acetonitrile, 0.1% formic acid
readout-kind: RP-LC retention time (s)

[[record]]
molecule = "CCCNC(=O)N1CCCC1c1nc(-c2ccccc2)no1 (stereo unspecified)"
readout_kind = "RP-LC retention time"
measurement_unit = "s"
number = 816

[[record]]
molecule = "COCc1nc2ccccc2n1CC(=O)NC1CCCCC1"
readout_kind = "RP-LC retention time"
measurement_unit = "s"
number = 642

[[record]]
molecule = "CCNC(=O)Cn1c(=O)c2cnc(-c3ccccc3)nc2n(CC)c1=O"
readout_kind = "RP-LC retention time"
measurement_unit = "s"
number = 802

[[record]]
molecule = "O=C(Nc1ccon1)c1ccc(-n2cccn2)nn1"
readout_kind = "RP-LC retention time"
measurement_unit = "s"
number = 659

[[record]]
molecule = "Cc1cccc(OCC(=O)Nc2nc(-c3ccccc3)cs2)c1"
readout_kind = "RP-LC retention time"
measurement_unit = "s"
number = 1090

[[record]]
molecule = "Cn1c(CNC(=O)CSc2nnc(-c3ccc4c(c3)OCO4)o2)nc2ccccc21"
readout_kind = "RP-LC retention time"
measurement_unit = "s"
number = 1020

[[record]]
molecule = "COc1cc(NC(=O)COc2cc(C)nc(N3CCCC3)n2)cc(OC)c1OC"
readout_kind = "RP-LC retention time"
measurement_unit = "s"
number = 602

[[record]]
molecule = "CCC(C)NC(=O)c1cc(-c2ccc(F)cc2)cn1C (stereo unspecified)"
readout_kind = "RP-LC retention time"
measurement_unit = "s"
number = 981

[[record]]
molecule = "Nc1ncnc(N2CCc3ccccc32)c1[N+](=O)[O-]"
readout_kind = "RP-LC retention time"
measurement_unit = "s"
number = 697

[[record]]
molecule = "COc1ccc2c(c1)[C@]13CCCC[C@@H]1[C@H](C2)N(C)CC3"
readout_kind = "RP-LC retention time"
measurement_unit = "s"
number = 732

[[record]]
molecule = "O=c1c2cc(-c3cccs3)nn2ccn1Cc1noc(CN2CCCCCCC2)n1"
readout_kind = "RP-LC retention time"
measurement_unit = "s"
number = 688

[[record]]
molecule = "CCOc1ccc2nc(Nc3ncc4c(n3)CC(c3cccs3)CC4=O)nc(C)c2c1 (stereo unspecified)"
readout_kind = "RP-LC retention time"
measurement_unit = "s"
number = 795

[[record]]
molecule = "COCc1nnc(C(=O)Nc2cccc(C(=O)NCCc3c[nH]c4ccc(Cl)cc34)c2)s1"
readout_kind = "RP-LC retention time"
measurement_unit = "s"
number = 896

[[record]]
molecule = "Cc1ncc([N+](=O)[O-])n1CC(O)CCl (stereo unspecified)"
readout_kind = "RP-LC retention time"
measurement_unit = "s"
number = 677

[[record]]
molecule = "COC(=O)c1ccc(N2C=C(C#N)S(=O)(=O)c3ccc(F)cc32)cc1"
readout_kind = "RP-LC retention time"
measurement_unit = "s"
number = 875

[[record]]
molecule = "CCOC(=O)c1ccc(NC(=O)N(Cc2cc(=O)[nH]c3ccccc23)C(C)C)cc1"
readout_kind = "RP-LC retention time"
measurement_unit = "s"
number = 772

